- Test system: Staphylococcus aureus
- TEST DESCRIPTION: In vitro antibacterial activity against 6538P strain of Staphylococcus aureus
- Format: functional
Measured MIC, listed per entry.

COMPOUND | MIC [µg/mL]
CC[C@H]1OC(=O)/C(C)=C/[C@H](C)[C@@H](O[C@@H]2O[C@H](C)C[C@H](N(C)C)[C@H]2O)[C@@](C)(OC)C[C@@H](C)C(=O)[C@H](C)[C@H]2NC(=O)O[C@@]21C (stereo in doubt; 7) | 25
CC[C@H]1OC(=O)/C(C)=C/[C@H](C)[C@@H](O[C@@H]2O[C@H](C)C[C@H](N(C)C)[C@H]2O)[C@@](C)(OC)C[C@@H](C)C(=O)[C@H](C)[C@H]2N(CCc3ccc(Oc4ccccc4)cc3)C(=O)O[C@]12C (stereo in doubt; 15) | 25
CC[C@H]1OC(=O)/C(C)=C/[C@H](C)[C@@H](O[C@@H]2O[C@H](C)C[C@H](N(C)C)[C@H]2O)[C@@](C)(OC)C[C@@H](C)C(=O)[C@H](C)[C@H]2N(CCCc3ccccc3)C(=O)O[C@]12C (stereo in doubt; 11) | 25
CC[C@H]1OC(=O)/C(C)=C/[C@H](C)[C@@H](O[C@@H]2O[C@H](C)C[C@H](N(C)C)[C@H]2O)[C@@](C)(OC)C[C@@H](C)C(=O)[C@H](C)[C@H]2N(CCc3ccc(Oc4ccccc4)cc3)C(=O)O[C@]12C (stereo in doubt; 14) | 3.1
CC[C@H]1OC(=O)/C(C)=C/[C@H](C)[C@@H](O[C@@H]2O[C@H](C)C[C@H](N(C)C)[C@H]2O)[C@@](C)(OC)C[C@@H](C)C(=O)[C@H](C)[C@H]2NC(=O)O[C@@]21C (stereo in doubt; 6) | 1.56
CC[C@H]1OC(=O)/C(C)=C/[C@H](C)[C@@H](O[C@@H]2O[C@H](C)C[C@H](N(C)C)[C@H]2O)[C@@](C)(OC)C[C@@H](C)C(=O)[C@H](C)[C@H]2N(CCCc3ccccc3)C(=O)O[C@]12C (stereo in doubt; 10) | 3.1
